- PROTOCOL DESCRIPTION: XTT cytotoxicity assay, non-tumorigenic cells
- Type: cell-based, human
- PROTOCOL CONDITIONS: human, HEK-293 cells (nontumorigenic); HEK293, 100 μM; read-out: cell viability
VALUE KIND: viability at 100 µM (%)
Report as a plain number; the unit % is understood.

**Q:** For the compound shown here, Cc1cc(C2=NCC(=CC#Cc3ccccc3)SC(c3ccc(Cl)cc3)=C2)ccc1F , give the reported viability at 100 µM.
**A:** 24.2

###

- Test system: A549 cells
- PROTOCOL DESCRIPTION: XTT cytotoxicity assay, lung cancer cells
- Format: cell-based, human
- PROTOCOL CONDITIONS: XTT assay; exposure time of the IC50 not stated (24, 48, 72 h tested); read-out: IC50, lung cancer (A549)
VALUE KIND: IC50
Number first, unit second: that is the form wanted.

**Q:** I have this compound here, N.N.[Cl][Pt][Cl] [cisplatin, Cisplatin, reference compound] , and I need its recorded IC50.
**A:** 13.4 µM

###

- Test system: MCF-7 cells
- PROTOCOL DESCRIPTION: XTT cytotoxicity assay, breast cancer cells
- Type: cell-based, human
- PROTOCOL CONDITIONS: Homo sapiens, MCF7, 72 h, read-out: IC50, breast cancer (MCF-7)
VALUE KIND: IC50 (µM)
Numbers only here, please. The scale is µM.

**Q:** // lookup IC50 for C#Cc1cccc(Nc2ncnc3cc(OCCOC)c(OCCOC)cc23)c1 [erlotinib, Erlotinib, reference compound]
**A:** 13.4

###

- Tested on: A549 cells
- PROTOCOL DESCRIPTION: XTT cytotoxicity assay, lung cancer cells
- Assay type: cell-based, human
- PROTOCOL CONDITIONS: Homo sapiens, A549; XTT assay; exposure time of the IC50 not stated (24, 48, 72 h tested); read-out: IC50, lung cancer (A549)
Attribute: IC50
The reply should be a number in µM, with the unit left off.

Answered cases to consult:
Cc1cc(C2=NCC(=CC#Cc3ccccc3)SC(c3ccc(Cl)cc3)=C2)ccc1F    12.7
Clc1ccc(C2=NC/C(=C/C#Cc3ccccc3)SC(c3ccccc3Br)=C2)cc1    14.2
Cc1ccc(C#C/C=C2/CN=C(c3ccccc3)C=C(c3ccccc3)S2)cc1    90.5

**Q:** Consider the molecule Fc1cccc(C2=NC/C(=C/C#Cc3ccccc3)SC(c3ccccc3)=C2)c1 and give its measured IC50.
**A:** 61.4

**Q:** Give its IC50 value. Item: CC(C)(C)c1ccc(C2=NC/C(=C/C#Cc3ccccc3)SC(c3ccccc3)=C2)cc1
**A:** 64.4

**Q:** Entry under review: Cc1ccc(C2=NC/C(=C/C#Cc3ccccc3)SC(c3ccccc3)=C2)cc1 . Reported IC50?
**A:** 96.6

**Q:** Recorded IC50 of C(#Cc1ccccc1)/C=C1/CN=C(c2ccccc2)C=C(c2ccccc2)S1 , please.
**A:** 38.7

**Q:** Recorded IC50 for Brc1ccc(C2=NC/C(=C/C#Cc3ccccc3)SC(c3ccccc3)=C2)cc1 , please?
**A:** 60.3

**Q:** Item under review: COc1ccc(C2=NC/C(=C/C#Cc3ccccc3)SC(c3ccccc3)=C2)cc1 . Reported IC50?
**A:** 108
